experimental_target: human SGLT2 (Homo sapiens (Human), UniProt P31639)
Sequence (P31639 whole entry): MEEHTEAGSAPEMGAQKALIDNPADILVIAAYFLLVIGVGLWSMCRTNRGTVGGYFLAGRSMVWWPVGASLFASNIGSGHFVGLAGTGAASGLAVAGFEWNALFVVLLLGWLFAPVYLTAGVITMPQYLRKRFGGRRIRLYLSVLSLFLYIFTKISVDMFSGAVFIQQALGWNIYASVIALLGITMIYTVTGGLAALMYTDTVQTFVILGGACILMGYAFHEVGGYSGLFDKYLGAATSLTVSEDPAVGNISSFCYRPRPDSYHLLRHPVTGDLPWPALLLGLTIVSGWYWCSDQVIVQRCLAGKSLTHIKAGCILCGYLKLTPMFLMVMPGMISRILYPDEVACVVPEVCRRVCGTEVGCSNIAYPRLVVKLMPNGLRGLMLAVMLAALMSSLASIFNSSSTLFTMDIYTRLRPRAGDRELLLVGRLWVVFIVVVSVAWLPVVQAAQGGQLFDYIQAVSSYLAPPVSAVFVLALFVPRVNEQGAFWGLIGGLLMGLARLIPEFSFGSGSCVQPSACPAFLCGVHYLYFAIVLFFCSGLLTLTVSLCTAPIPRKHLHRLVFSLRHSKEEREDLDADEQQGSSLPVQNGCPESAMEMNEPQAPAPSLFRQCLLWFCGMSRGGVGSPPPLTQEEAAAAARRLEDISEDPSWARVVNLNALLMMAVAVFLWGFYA
method_notes: Inhibitory effects on human SGLT2 activities (14C-AMG uptake, sodium-dependent glucose transport assay)
Format: cell-based
conditions: CHO cells stably expressing hSGLT2, 37° C., 2 h, single determinations
pIC50: −log10 of the molar value.
recorded_endpoint: pIC50

Consider the worked cases shown below.
Cc1ccc([C@@H]2O[C@H](CO)[C@@H](O)[C@H](O)[C@H]2O)cc1Cc1ccc2c(c1)OCCCO2 [Example E030]; 8.02
C=CCOc1cc(Cl)c(Cc2ccc(OC)cc2)cc1[C@@H]1O[C@H](SC)[C@@H](O)[C@H](O)[C@H]1O [Example E110]; 9.30
OC[C@H]1O[C@@H](c2cc(Cc3ccccc3)c(Cl)c3c2CCO3)[C@H](O)[C@@H](O)[C@@H]1O [Example E166]; 8.37
C=C(C)c1ccc(Cc2cc([C@@H]3O[C@H](CO)[C@@H](O)[C@H](O)[C@H]3O)c3c(c2Cl)OCC3)cc1 [Example E180]; 9.24
COc1ccc(Cc2cc([C@@H]3O[C@H](CO)[C@@H](O)[C@H](O)[C@H]3O)c3c(c2Cl)CCCO3)cc1 [Example E016]; 9.01
CCOc1ccc(Cc2cc([C@@H]3O[C@H](OC)[C@@H](O)[C@H](O)[C@H]3O)c(OC)cc2Cl)cc1 [Example E109]; 7.54

[I] CCc1ccc(Cc2cc([C@@H]3O[C@H](CO)[C@@H](O)[C@H](O)[C@H]3O)c3c(c2Cl)NCCO3)cc1 [Example E214]
[II] OC[C@H]1O[C@@H](c2ccc(Cl)c(Cc3ccc4nccnc4c3)c2)[C@H](O)[C@@H](O)[C@@H]1O [Example E026]
Hi, I'm comparing I with II and wondering which one has the bigger number for pIC50. Any idea? Field: selected label. Fill in the label of the entry you choose.
I
(I: 8.50, II: 8.06)

====

experimental_target: UniProt:P31639
method_notes: Inhibitory effects on human SGLT2 activities (14C-AMG uptake, sodium-dependent glucose transport assay)
Assay type: cell-based
conditions: CHO cells stably expressing hSGLT2, 37° C., 2 h, single determinations
pIC50: −log10 of the molar value.
recorded_endpoint: pIC50

Here are 3 molecules together with their reported answers.
Cc1ccc([C@@H]2O[C@H](CO)[C@@H](O)[C@H](O)[C@H]2O)cc1Cc1ccc2c(c1)OCCO2; 8.69
OC[C@H]1O[C@@H](c2cc(Cc3ccc(SC4CC4)cc3)c(Cl)c3c2CCO3)[C@H](O)[C@@H](O)[C@@H]1O; 8.73
CC(F)(F)c1ccc(Cc2cc([C@@H]3O[C@H](CO)[C@@H](O)[C@H](O)[C@H]3O)c3c(c2Cl)OCC3)cc1; 9.04

[a] CCOc1ccc(Cc2cc([C@@H]3O[C@H](CO)[C@@H](O)[C@H](O)[C@H]3O)c3c(c2Cl)OCCO3)cc1
[b] CCc1ccc(Cc2cc([C@@H]3O[C@H](CO)[C@@H](O)[C@H](O)[C@H]3O)c3c(c2Cl)OCO3)cc1
// pick larger pIC50 from pair: a vs b Indicate which entry you chose by stating its label.
b

[I] CCc1ccc(Cc2cc([C@@H]3O[C@H](CO)[C@@H](O)[C@H](O)[C@H]3O)c3c(c2Cl)C(C)CO3)cc1 (stereo partly shown)
[II] COc1cc([C@@H]2O[C@H](SC)[C@@H](O)[C@H](O)[C@H]2O)cc(Cc2ccc3c(c2)OCCO3)c1Cl
[III] CC(F)c1ccc(Cc2cc([C@@H]3O[C@H](CO)[C@@H](O)[C@H](O)[C@H]3O)c3c(c2Cl)OCC3)cc1 (stereo partly shown)
[IV] CNc1ccc(Cc2cc([C@@H]3O[C@H](CO)[C@@H](O)[C@H](O)[C@H]3O)c3c(c2Cl)OCC3)cc1 [Example E141, 2,2,2-trifluoroacetate]
Order the entries by their reported pIC50, beginning at the minimum. List labels; respect the requested ordering.
IV, III, I, II

[I] CCCc1ccc(Cc2cc([C@@H]3O[C@H](CO)[C@@H](O)[C@H](O)[C@H]3O)c3c(c2Cl)OCC3)cc1
[II] CCOc1ccc(Cc2cc([C@@H]3O[C@H](CF)[C@@H](O)[C@H](O)[C@H]3O)c3c(c2Cl)OCC3)cc1
// pick larger pIC50 from pair: I vs II Pick one; state its label.
I

====

experimental_target: human SGLT2 (Homo sapiens (Human), UniProt P31639)
method_notes: Inhibitory effects on human SGLT2 activities (14C-AMG uptake, sodium-dependent glucose transport assay)
conditions: CHO cells stably expressing hSGLT2, 37° C., 2 h, single determinations
Source text: Test 1: Cloning and Cell Line Construction for Human SGLT2 Human SGLT2 (hSGLT2) gene was amplified by PCR from cDNA-Human Adult Normal Tissue Kidney (Invitrogen). The hSGLT2 sequence was cloned into pcDNA3.1(+) for mammalian expression and stably transfected into chinese hamster ovary (CHO) cells. SGLT2-expressing clones were selected based on resistance to G418 antibiotic (Geneticin) and activity in the ^14C-α-methyl-D-glucopyranoside (^14C-AMG) uptake assay. […]
recorded_endpoint: IC50 (nM)

COc1cc(Cl)c(Cc2ccc3c(c2)OCCO3)cc1[C@@H]1O[C@H](OC)[C@@H](O)[C@H](O)[C@H]1O; 18.5

[I] OC[C@H]1O[C@@H](c2cc(Cc3ccc(C4CC4)cc3)c(Cl)c3c2OCCC3)[C@H](O)[C@@H](O)[C@@H]1O
[II] OC[C@H]1O[C@@H](c2ccc(Cl)c(Cc3ccc4c(c3)SCO4)c2)[C@H](O)[C@@H](O)[C@@H]1O
Lab log: flag the item ( I or II ) with the smaller IC50 figure. Give the label of your selection.
I

====

experimental_target: UniProtKB P31639
method_notes: Inhibitory effects on human SGLT2 activities (14C-AMG uptake, sodium-dependent glucose transport assay)
Assay type: cell-based
conditions: CHO cells stably expressing hSGLT2, 37° C., 2 h, single determinations
Counter-ions that a name gives are not always drawn.
recorded_endpoint: IC50 (nM)

OC[C@H]1O[C@@H](c2ccc(Cl)c(Cc3ccc4c(c3)COCO4)c2)[C@H](O)[C@@H](O)[C@@H]1O; 9.47
OC[C@H]1O[C@@H](c2cc(Cc3ccc(C(F)(F)F)cc3)c(Cl)c3c2OCC3)[C@H](O)[C@@H](O)[C@@H]1O; 1.97
COc1ccc(Cc2cc([C@@H]3O[C@H](CO)[C@@H](O)[C@H](O)[C@H]3O)c3oc(C)c(OC)c3c2Cl)cc1; 49.4
CCOc1ccc(Cc2cc([C@@H]3O[C@H](CO)[C@@H](O)[C@H](O)[C@H]3O)c3c(c2Cl)CCC3)cc1; 0.551

[1] CC1Cc2c(Cl)c(Cc3ccc(C(C)C)cc3)cc([C@@H]3O[C@H](CO)[C@@H](O)[C@H](O)[C@H]3O)c2O1 (stereo partly shown)
[2] CNCc1ccc(Cc2cc([C@@H]3O[C@H](CO)[C@@H](O)[C@H](O)[C@H]3O)c3c(c2Cl)OCC3)cc1 [Example E183, acetic acid salt]
Thinking about recorded IC50 values, which is higher, 1 or 2 ? # reply format: chosen label
2

====

experimental_target: human SGLT2 (Homo sapiens (Human), UniProt P31639)
method_notes: Inhibitory effects on human SGLT2 activities (14C-AMG uptake, sodium-dependent glucose transport assay)
conditions: CHO cells stably expressing hSGLT2, 37° C., 2 h, single determinations
pIC50: −log10 of the molar value.
recorded_endpoint: pIC50

Worked set:
CCOc1ccc(Cc2cc([C@@H]3O[C@H](CO)[C@@H](O)[C@H](O)[C@H]3O)cc(-c3ccc(F)cc3)c2C)cc1; 7.03
CCc1ccc(Cc2cc([C@@H]3O[C@H](CO)[C@@H](O)[C@H](O)[C@H]3O)c3c(c2Cl)CC(C)O3)cc1 (stereo partly shown); 9.15
OC[C@H]1O[C@@H](c2cc(Cc3ccc(C4CC4)cc3)c(Cl)c3c2CCO3)[C@H](O)[C@@H](O)[C@@H]1O; 9.33
CC(C)Oc1ccc(Cc2cc([C@@H]3O[C@H](CO)[C@@H](O)[C@H](O)[C@H]3O)c3c(c2Cl)OCC3)cc1; 8.71
CCOc1ccc(Cc2cc([C@@H]3O[C@H](CO)[C@@H](O)[C@H](O)[C@H]3O)c3c(c2Cl)CCCO3)cc1; 8.81

[1] CSc1ccc(Cc2cc([C@@H]3O[C@H](CO)[C@@H](O)[C@H](O)[C@H]3O)c3c(c2Cl)CCCO3)cc1
[2] CC(C)n1ncc2cc(Cc3cc([C@@H]4O[C@H](CO)[C@@H](O)[C@H](O)[C@H]4O)ccc3Cl)ccc21
Identify the entry with the smaller pIC50: 1 or 2 . Field: selected label. Fill in the label of the entry you choose.
2

====

experimental_target: human SGLT2 (Homo sapiens (Human), UniProt P31639)
method_notes: Inhibitory effects on human SGLT2 activities (14C-AMG uptake, sodium-dependent glucose transport assay)
conditions: CHO cells stably expressing hSGLT2, 37° C., 2 h, single determinations
pIC50: −log10 of the molar value.
recorded_endpoint: pIC50

Answered examples (8):
CSc1ccc(C2OCc3ccc([C@@H]4O[C@H](CO)[C@@H](O)[C@H](O)[C@H]4O)cc32)cc1 (some centres unmarked) [Example E102]; 7.12
CN(C)c1ccc(Cc2cc([C@@H]3O[C@H](CO)[C@@H](O)[C@H](O)[C@H]3O)c3c(c2Cl)CCC3)cc1 [Example E116]; 9.32
OC[C@H]1O[C@@H](c2ccc(Cl)c(Cc3ccc(N4CCCC4)cc3)c2)[C@H](O)[C@@H](O)[C@@H]1O [Example E221]; 8.66
OC[C@H]1O[C@@H](c2cc(Cc3ccc4c(c3)NCCC4)c(Cl)c3c2CCO3)[C@H](O)[C@@H](O)[C@@H]1O [Example E230]; 8.60
CCCc1ccc(Cc2cc([C@@H]3O[C@H](CO)[C@@H](O)[C@H](O)[C@H]3O)c3c(c2Cl)CC(C)O3)cc1 (some centres unmarked) [Example E134]; 9.05
CCc1ccc(Cc2cc([C@@H]3O[C@H](CO)[C@@H](O)[C@H](O)[C@H]3O)c3c(c2Br)CCC3)cc1 [Example E004]; 9.18
CCOc1ccc(Cc2cc([C@@H]3O[C@H](SC)[C@@H](O)[C@H](O)[C@H]3O)c3c(c2Cl)CC(C)O3)cc1 (some centres unmarked) [Example E145]; 9.16
CC(O)c1ccc(Cc2cc([C@@H]3O[C@H](CO)[C@@H](O)[C@H](O)[C@H]3O)c3c(c2Cl)OCC3)cc1 (some centres unmarked) [Example E169]; 8.67

[1] COc1ccc(Cc2cc([C@@H]3O[C@H](CO)[C@@H](O)[C@H](O)[C@H]3O)c3c(c2Cl)OCCO3)cc1 [Example E104]
[2] COc1ccc(Cc2cc([C@@H]3O[C@H](CO)[C@@H](O)[C@H](O)[C@H]3O)c3c(c2Cl)C(C)CO3)cc1 (some centres unmarked) [Example E216]
[3] O=S1(=O)CCOc2ccc(Cc3cc([C@@H]4O[C@H](CO)[C@@H](O)[C@H](O)[C@H]4O)ccc3Cl)cc21 [Example E073]
[4] OC[C@H]1O[C@@H](c2cc(Cc3ccc4c(c3)NCCO4)c(Cl)c3c2CCO3)[C@H](O)[C@@H](O)[C@@H]1O [Example E231]
Sequence the entries by pIC50, beginning with the highest number. Use the labels to give the requested order.
2, 1, 4, 3

[P] OC[C@H]1O[C@@H](c2cc(Cc3ccc(OC4CCC4)cc3)c(Cl)c3c2CCO3)[C@H](O)[C@@H](O)[C@@H]1O [Example E234]
[Q] CCOc1ccc(Cc2cc([C@@H]3O[C@H](CO)[C@@H](O)[C@H](O)[C@H]3O)c3c(c2Cl)OCCC3)cc1 [Example E157]
For the two items P and Q , which reports the higher pIC50 value? Identify your pick by its label.
Q
(Q: 8.89, P: 8.55)
